Target: hemagglutinin (HA) of influenza B virus B/Malaysia (Victoria lineage) (influenza B virus B/Malaysia/04 …)
Assay: ForteBio Octet; antigen on the sensor, varying antibody concentrations
Assignment: determine reported Kd for the given binders.

Need Kd, item TRL832 (antibody, V domains shown) VH: QVQLVESGPGLMKPSETLSLTCTVSGGSVSNYYWSWIRQPPGKGLEWIGYVFYSGSSNYNPSLNNPSLKSRVTISIDTSNNQFSLKLSSVTAADTAVYYCARGRVNSGYDWGPNFDSWGQGALVTVSS VL: DIVLTQAPSVSVSPGQTASITCSGDRLGEKFASWYQQKPGQSPVLVIYEDSKRPSGIPDRFSGSNSGNTATLTISGTQIMDEGDFFCQAWDSSTVVFGGGTKLTVLG
0.2 nM

Need Kd, item TRL849 (antibody, V domains shown) VH: QVQLVESGPGLVKPSQTLSLTCTVSGGSISNGGYHWSWIRQHPGKGLEWIGNIYYRGSTFYDPSLKSRVTISVDTSKSQFSLKLTSVTAADTAVYYCARMPLANYDLLTGLYIGAFDLWGQGTMVTVSS VL: DIVLTQSPATLSVSPGERATLSCRASQSVNRNLAWFQQIPGQAPRLLIFDASTRAADIPARFSGGGSGAEFTLTVSSLQPEDFAVYYCQQYDKWPPGFGQGTKVEIKR
< 1 nM

Need Kd, item TRL847 (antibody, V domains shown) VH: QVQLVESGGGLVQPGGSLRLSCVASGFTFSRFSMNWVRQAPGMGLEWVSYISDTGRTIYYADSVKGRFTISRDNDKNTLYLQMKSLRDEDSAFYYCARDPDTPFVRAFDSWGQGVLVTVSS VL: DIVMTQSPSFLSASVGDRVTITCRTSQVISSYLAWYQQRPGKAPKLLIYAASTLQSGVPSRFSGSGSGTRFSLTISNLQPEDFATYFCQQLTTYPPITFGQGTRLEIKR
< 1 nM

Need Kd, item TRL845 (antibody, V domains shown) VH: QVQLVQSGGDLVQPGGSLRLSCAASGFTFSRYSMNWVRQAPGMGLEWVAYISDTSRTIYYADSVKGRFTISRDNAKNSLYLQMKSLRDEDTAVYYCARDPDTPFVRAFDSWGQGTLVTVSS VL: DIVLTQSPSFLSASVGDRVTITCRASQLISSYFAWYQQKPGKPPKLLIYAASTLQSGVPSRFSGSGSGTQFSLTISSLQPEDFATYYCQQLNSYPPITFGQGTRLEIKR
< 1 nM
